Each recorded value in this set is attributed to patent US4904585A.

assay: Acute toxicity on mice; format: in vivo; conditions: mouse, in vivo, iv
value type: LD50

**Query** LD50 for Nc1ncnc2c1ncn2C1OC(CO)C1CO (stereo not shown) [NK84-0218] ?
**Result** ≥ 100 mg/kg
